Assay: NCI Yeast Anticancer Drug Screen. Data for the bub3 strain (AID 167)
Settings: S. cerevisiae bub3 mutant strain, at 50.0 µM (retest, dose inferred, filed as 5.0), stronger effect = higher value
The panel holds about 79,000 compounds, 15% with a hit somewhere; the sample as a whole holds those more often.
measurement-label: growth inhibition (%)
Hi! Could you send only the number? It should be in %, unit omitted.

Consider the worked cases shown below.
# input compound: Cc1cc2c(C(C)C)c(O)c(O)c(C=Nc3ccccc3S)c2c(O)c1-c1c(C)cc2c(C(C)C)c(O)c(O)c(C=Nc3ccccc3S)c2c1O ; wanted: its growth inhibition
45

Give the measured growth inhibition of C=C1CC2(CC(c3ccccc3OC)OC(c3ccccc3OC)C2)OC1=O (stereo not drawn) .
14

# input for lookup
Report growth inhibition for O=C(CC1(O)C(=O)Nc2ccccc21)c1ccc(Cl)c(Cl)c1 (stereo not drawn) please.
31

====

Assay: NCI Yeast Anticancer Drug Screen. Data for the mlh1 rad18 strain (AID 175)
Settings: S. cerevisiae mlh1 rad18 strain growth inhibition; at 50.0 µM
About 79,000 compounds went through this panel and 15% of them were active in at least one assay; those are over-represented in the sample as a whole. Active and inactive are the calls of the source. No stated cut-off is given here; in the data, active means growth inhibition above about 70%; inactive means the rest.
Respond with a class label; see active, inactive

Which outcome was entered for the molecule CC(=O)Nc1ccc(S(=O)(=O)N/N=C/c2ccc(C)cc2)cc1 in this test?
inactive

***
Assay outcome for CCC(C)c1ccc(O)c(C(C)CC)c1 (stereo not drawn) : what was it?
inactive

What did this assay record as the result for C=CCc1c2c(ccc(=O)c1O)-c1c(cc(OC)c(OC)c1OC)CCC2NC(C)=O (stereo not drawn) ?
inactive

Outcome logged for S=c1nc[nH]c2[nH]ccc12 in this assay:
inactive

====

Experiment: NCI Yeast Anticancer Drug Screen. Data for the cln2 rad14 strain (AID 165);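 further: 0% = growth equal to vehicle treated cultures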
Settings: S. cerevisiae cln2 rad14 strain, at 50.0 µM (retest, dose inferred, filed as 5.0), stronger effect = higher value
Compounds without any hit were thinned out: in the full panel of roughly 79,000, 15% have a hit.
Entry flag: 1 if growth inhibition reaches 80%; 0 if it does not.

Use the examples below as a reference point.
Given O=C1OC(CN2CCOCC2)CN1/N=C/c1ccc([N+](=O)[O-])o1 (centres undefined) , state whether its growth inhibition is at least 80%.
0

I'd appreciate it if you could say whether CCn1c(-c2c(Cl)cc(O)cc2Cl)cc2c(Cl)cc(O)cc21 has growth inhibition at least equal to 80%.
1

Decide: growth inhibition of O=C(N/C=C/C=C/Sc1ccccc1)OCc1ccccc1 >= 80%?
1

***
# check: growth inhibition of Cc1c(C)c(CCl)c(C)c(C)c1CCl is greater than or equal to 80%
1

Record O=C1C(=Cc2ccc(O)cc2)N=C(c2ccccc2)N1n1c(-c2ccccc2)nc2ccccc2c1=O ; criterion: growth inhibition no lower than 80%. Met?
0

Identify whether the reported growth inhibition of the following compound is 80% or greater: CCC(C)[P+](c1ccccc1)(c1ccccc1)c1ccccc1 (centres undefined)
0

====

Experiment: NCI Yeast Anticancer Drug Screen. Data for the sgs1 mgt1 strain (AID 161);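 further: 0% = growth of cultures given vehicle only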
Conditions: S. cerevisiae sgs1 mgt1 strain, at 50.0 µM (retest, dose inferred, filed as 5.0), stronger effect = higher value
Compounds without any hit were thinned out: in the full panel of roughly 79,000, 15% have a hit.
Reported values of growth inhibition for individual entries
Give your result in % as a bare value.

Give its growth inhibition value. Item: COc1cc2c(cc1O)C1CN(C2)Cc2cc(OC)c(O)cc21
76

What growth inhibition value was documented for this compound, CCN(CC)CCNc1nc(NCCN(CC)CC)c2nc(-c3ccccc3)c(-c3ccccc3)nc2n1 ?
99

What does the record list as growth inhibition for CCCCCCCCCC(=O)c1ccc(O)c(O)c1O ?
94

Dear colleague, I am looking for the recorded growth inhibition of the following compound: COC(=O)[C@]1(C)CCC[C@]2(C)c3cc(C(C)=O)c(C(C)C)cc3CC[C@@H]12
-27

What value of growth inhibition has been recorded for this entry: O=S(O)CCCCSSCC(O)C(O)CSSCCCCS(=O)O (configuration not stated)
50

More entries:
Entry under review: CCC(C)c1ccc(O)c(C(C)CC)c1 (configuration not stated) . Reported growth inhibition?
72

Can you share its growth inhibition? I mean this compound: O=C(NO)c1cccnc1
-3
